Test system: Phosphorylation of STAT6 in human PBMC (CD19+ B cells)
method summary: Phosphorylated STAT6 (pSTAT6) flow cytometry assay in human PBMC, IL-4 stimulated
Type: cell-based
test context: compound 1 hour, 1 ng/ml IL-4 for 15 minutes, read-out: STAT6 IL4 pSTAT6 assay in PBMC: Average IC50
pIC50: −log10 of the molar value.
Quick reference for pIC50 among some compounds
outcome measure: pIC50

> print(dat)
                                   compound  outcome.measure        result
1  CN(C)C(=O)c1cc2ccc(C3=CCCN(C(=O)C4CC4c4ccn(C)n4)C3)cc2[nH]1 (stereo not shown)            pIC50  4.00 to 5.00
2  CN(C)C(=O)c1cc2ccc(C3=CCCN(C(=O)C4(c5ccc(C(F)(F)F)cc5)CC4)C3)cc2[nH]1            pIC50        < 4.00
3  CN(C)C(=O)c1cc2cc([C@@H]3CC[C@H](CO)N(C(=O)CCn4ccnn4)C3)ccc2o1 (single isomer, unassigned)            pIC50        < 4.00
4  Cc1nocc1C(=O)N1CCC=C(c2ccc3cc(C(=O)N(C)C)[nH]c3c2)C1            pIC50  4.00 to 5.00
5  NC(=O)c1cc2cc(C3=CCCN(C(=O)CCn4ccnn4)C3)ccc2o1            pIC50        < 4.00
6  CNc1ccc(-c2cc(C3=CCCN(C(=O)CCn4ccnn4)C3)cc3cc(C(=O)N(C)C)oc23)cc1            pIC50        < 4.00
7  CN(C)C(=O)c1cc2cc(C3=CCCN(C(=O)[C@H]4Cc5ccc(O)cc5CN4)C3)ccc2o1            pIC50        < 4.00
